# Test Summary: folding enthalpy; higher = less favourable; fluorescence melt of hairpins on a sequencing array, two-state fit
# Condition Details: sodium 0.088 M
Assay Endpoint: folding enthalpy (kcal/mol)
// return numeric value only (unit: kcal/mol, not printed)

[[record]]
input_sequence = "GGGTACGAAAGTATGCCC ((((((....)))..)))"
experimental_value = -16

[[record]]
input_sequence = "GTTCAACGAAAGTTAAAC (((.(((....))).)))"
experimental_value = -18.6

[[record]]
input_sequence = "GATCGTCCCGACGATC ((((((....))))))"
experimental_value = -43.2

[[record]]
input_sequence = "GGCAGGTCGAAAGACGCC (((..(((....))))))"
experimental_value = -24

[[record]]
input_sequence = "GCATGCGAAAGCATTGC ((((((....))).)))"
experimental_value = -21.3

[[record]]
input_sequence = "GGGCGCGGAAACGCACCC (((.(((....))).)))"
experimental_value = -43.8


Ask: Given GATCATTTTCATGATC ((((((....)))))) , state its recorded folding enthalpy.
Reply: -31.1

Ask: Can you look up the measured folding enthalpy of GCCATCGGAAACGACGGC (((.(((....))).))) for me?
Reply: -35.5

Ask: Any idea what folding enthalpy was measured for GTGTTAGGAAACCAACAC (((((.(....).))))) ?
Reply: -28.9

Ask: May I ask what folding enthalpy has been recorded for GACTCCGAAAGGAGCGTC ((((((....)))..))) ?
Reply: -13.4

Ask: # folding enthalpy lookup, item GGGTAAGCGAAAGCTCCC (((..(((....))))))
Reply: -20.6

Ask: Give its folding enthalpy value. Item: GCATGGCGAAAGCGACGC ((.(.((....)).).))
Reply: -12.7

Ask: Request the reported folding enthalpy associated with GGATGACGAAAGTCTCC (((.(((....))))))
Reply: -20

Ask: What value of measured folding enthalpy is listed for GTTTAACGAAAGTTTAAC (((.(((....))).))) ?
Reply: -23.4

----------
Measured Tm by item
# Test Summary: melting temperature; fluorescence melt of hairpins on a sequencing array, two-state fit, raised by 9.35 °C to match UV melts
# Condition Details: sodium 0.088 M
Number in °C, nothing else.

// below: answered sequences
[[record]]
input_sequence = "GCTGTCCGAAAGGAAGC (((.(((....))))))"
assay_endpoint = "Tm"
experimental_value = 49.1

[[record]]
input_sequence = "GGAGCCGAAAGGCGGTCC ((((((....)))..)))"
assay_endpoint = "Tm"
experimental_value = 48.1

[[record]]
input_sequence = "GTTTTACGAAAGTATAAC (((.(((....))).)))"
assay_endpoint = "Tm"
experimental_value = 37.5

[[record]]
input_sequence = "GCGTACGGAAACATACGC (((((.(....).)))))"
assay_endpoint = "Tm"
experimental_value = 46.8

[[record]]
input_sequence = "GAACTCGGAAACGGGTTC ((((.((....)).))))"
assay_endpoint = "Tm"
experimental_value = 50.4


Ask: // returns reported Tm for input GGCACCGAAAGGTTGGCC ((((((....)))..)))
Reply: 53.3

Ask: Any idea what Tm was measured for GGTATCCGAAAGGACACC (((.(((....))).))) ?
Reply: 47.5

Ask: Tm lookup needed for GGCATTGAAAAATGCC ((((((....)))))) , thanks.
Reply: 61.5

Ask: Please look up its Tm: GATCCTTTATAGGATC ((((((....))))))
Reply: 53.4

Ask: Name the recorded Tm for GTGCTCGAAAGAGGACAC ((((((....)))..))) .
Reply: 49.8

Ask: Item under review: GATCCAATCATGGATC ((((((....)))))) . Reported Tm?
Reply: 50.8

Ask: Could you tell me which Tm is on file for GCGTTTTCGAAAGAACGC (((..(((....)))))) ?
Reply: 49.6

Ask: Which Tm is listed for GCTACCGGAAACAGTAGC (((((.(....).))))) ?
Reply: 40.6

Ask: Query (sequence): GACCACGAAAGTGCGGTC ((((((....)))..))) ; field requested: Tm
Reply: 43.2

Ask: // Tm lookup, key: GATCCCTCTAGGGATC ((((((....))))))
Reply: 66.6

Ask: Sample GCGACCGGAAACGATCGC ((((.((....)).)))) — what was its Tm?
Reply: 55

Ask: Would you kindly share the measured Tm for CAGAAGAAATTCTG (((((....))))) ?
Reply: 33.8

Ask: Entry GGTCTCGAAAGAGCGACC ((((((....)))..))) has what Tm?
Reply: 37.3

Ask: Using the record for GAAGGACGAAAGTCGTTC (((.(((....))).))) , report its Tm.
Reply: 51.9
